Conditions: rat; liver microsomes; pH 7.4; 15.0 min; 1.0 µM
The following compounds are shown together with reported half-life values.

Use these answered entries as a reference point.
C[C@H]1CN(C(=O)c2nn(C)c3ccccc23)C[C@@H]1c1nc(-c2ccncc2)no1 :: 5.01 min
O=C(O)c1cccc(-c2noc(-c3ccccc3F)n2)c1 :: > 30 min
COc1cccc(-n2ncc3c2CCCC3NC(=O)c2ccccn2)c1 (centres undefined) :: 11 min

Could you now look at the following compound, please?
Find the recorded half-life belonging to NS(=O)(=O)c1ccc(NC(=O)c2cc3ncccn3n2)cc1 and report it.
> 30 min

====

Conditions: rat; liver microsomes; pH 7.4; 15.0 min; 1.0 µM
measure-name: half-life

O=C(Nc1cccnc1)c1cccs1 :: > 30 min
NC(=O)C1CCN(c2nc(-c3cccc4sc5ccccc5c34)cs2)CC1 :: > 30 min
CC(C)CCNC(=O)[C@H](CC(C)C)NC(=O)[C@H]1O[C@@H]1C(=O)O :: > 30 min
NCC1CCC(C(=O)Oc2ccc(CCC(=O)O)cc2)CC1 (configuration not stated) :: > 30 min
COc1cccc(CNc2ccc(C(=O)Nc3nccs3)cc2)c1O :: > 30 min
NC(=O)C(=O)N/N=C/c1ccc([N+](=O)[O-])o1 :: > 30 min
CC(=O)c1c(C)[nH]c(C(=O)Nc2ccc(Cl)cc2)c1C :: > 30 min
O=S(=O)(Nc1nccs1)c1ccc(Nc2nc(-c3ccc(F)cc3)cs2)cc1 :: > 30 min

Fill blank: measured half-life of the compound Cc1ccc2oc(NC3=NC(c4ccccc4Cl)C4=C(CCCC4=O)N3)nc2c1 (configuration not stated) is ____.
> 30 min

Fill in: half-life of Cc1cc(C)nc(NC(=S)N2CCN(c3ccc(F)cc3F)CC2)c1 is ___
> 30 min

Requested field: half-life. Item: COc1ccc(NC(=O)c2[nH]c(C)cc2C)cc1S(=O)(=O)Nc1ccc(Br)cc1
> 30 min

I would be grateful if you could share the reported half-life for O=C(Nc1ccc(S(=O)(=O)Nc2nccs2)cc1)c1ccc2ccccc2c1 .
> 30 min

====

Conditions: rat; liver microsomes; pH 7.4; 15.0 min; 1.0 µM
measure-name: half-life

For orientation, consider the following solved cases.
O=C(Nc1cc(C(F)(F)F)ccc1N1CCOCC1)c1n[nH]c(=O)c2ccccc12 :: > 30 min
Cc1ccccc1C(=O)N1CCc2cc(-c3nc(NC(=O)c4ccc5c(c4)OCO5)sc3C)ccc21 :: > 30 min
O=C(Cc1ccc(Cl)c(Cl)c1)Nc1ccc(S(=O)(=O)Nc2cncnc2)cc1 :: > 30 min
O=C(Nc1ccc2oc(-c3ccccc3F)nc2c1)c1ccc([N+](=O)[O-])o1 :: > 30 min
O=C(O)c1cccc(-c2cnc3ccccc3c2)c1 :: > 30 min
NC1(c2ccc(NC(=O)c3ccnc(-c4cc(C(=O)O)ccn4)c3)cc2)CC1 :: > 30 min
Cc1cccc(-c2noc([C@@H]3Cc4nc[nH]c4CN3)n2)c1 :: > 30 min

Let us examine a further case.
Which half-life is listed for COc1ccc(C2c3c(oc4ccc(Cl)cc4c3=O)C(=O)N2CCCN(C)C)cc1OC (stereo not drawn) ?
> 30 min

====

This listing pairs molecules with measured half-life.
Details: rat; liver microsomes; pH 7.4; 15.0 min; 1.0 µM

COc1ncc(-c2n[nH]c3c2CC(=O)N(c2ccccc2)C3)cn1 :: > 30 min
CC(=O)Nc1ccc(N[S+](=O)([O-])c2cccc(NC(=O)c3[nH]c(C)c(C(C)=O)c3C)c2)cc1 :: > 30 min

Entry under review: O=C(C1CCN(c2nc(-c3ccc(Br)cc3)cs2)CC1)N1CCNCC1 . Reported half-life?
> 30 min

The origin of these recorded values is PubChem BioAssay AID1508591.
